Target: bromodomain protein BRD4 BD2 (Homo sapiens)
Construct: The proteins BRD4 BD1/BD2 used in the experiment were purchased from Active Motif Company (Cat. No. 31380/31446)
Assay: HTRF in vitro assay, inhibitory activity against BRD4 BD2
Details: BRD4(2) 30 nM in final system
Endpoint Name: IC50

Cc1ccc(C2CCC(=O)N2c2cn(C)c(=O)c3[nH]c(-c4cnn(C)c4)cc23)cc1 (stereo not shown) ... 10 to 100 nM
Cn1ccc(NC(=O)c2cc3c(-c4nc5ncccc5n4-c4ccccc4)cn(C)c(=O)c3[nH]2)n1 ... 10 to 100 nM
COc1ccc(C(C)c2cn(C)c(=O)c3[nH]c(-c4cnn(C5COC5)c4)cc23)cc1 (stereo not shown) ... ≤ 10 nM
CC(c1ccccc1)c1cn(C)c(=O)c2[nH]c(C(=O)NC3CC3)cc12 (stereo not shown) ... ≤ 10 nM
CCNC(=O)c1cc2c(C(C)c3cccnc3)cn(C)c(=O)c2[nH]1 (stereo not shown) ... ≤ 10 nM

Ask | Could you please provide reported IC50 for Cc1ccc(C(C)(C)c2cn(C)c(=O)c3[nH]c(-c4cnn(C5COC5)c4)cc23)cc1 ? Thanks!
Reply | 10 to 100 nM

Ask | Could you please provide reported IC50 for CCNC(=O)c1cc2c(Cc3ccccc3)cn(C)c(=O)c2[nH]1 ? Thanks!
Reply | 10 to 100 nM

Ask | Could you please provide reported IC50 for CC(c1ccccc1)c1cn(C)c(=O)c2[nH]c(-c3cnn(C4COC4)c3)cc12 (stereo not shown) ? Thanks!
Reply | ≤ 10 nM

Ask | Could you please provide reported IC50 for CC(c1ccccc1)c1cn(C)c(=O)c2cc(-c3cn(C)nc3[N+](=O)[O-])sc12 (stereo not shown) ? Thanks!
Reply | 100 to 1000 nM

Ask | Could you please provide reported IC50 for Cc1cc(C)cc(-n2c(-c3cn(C)c(=O)c4[nH]c(C(=O)Nc5ccn(C)n5)cc34)nc3ncccc32)c1 ? Thanks!
Reply | ≤ 10 nM

Ask | Could you please provide reported IC50 for CCNC(=O)c1cc2c(C(C)c3ccc4ccccc4c3)cn(C)c(=O)c2[nH]1 (stereo not shown) [Compound A22] ? Thanks!
Reply | 10 to 100 nM

Ask | Could you please provide reported IC50 for CCNC(=O)c1cc2c(C(O)c3ccc4c(ccn4C)c3)cn(C)c(=O)c2[nH]1 (stereo not shown) ? Thanks!
Reply | 10 to 100 nM

Data provenance is patent US12649735B2.
